Measured IC50, listed per entry for reference.
# Test system: A549 (human non-small cell lung cancer)
# METHOD_SUMMARY: Antiproliferative activity (SRB assay)
# Type: cell-based
# SETUP_CONDITIONS: mean ± SD, three separated experiments, 72 h

Problem: Query: IC50; subject: `COC(=O)c1cccc2[nH]cc(/C=C(\F)C(=O)c3cc(OC)c(OC)c(OC)c3)c12`
Result: > 5 µM

Problem: Then what about the molecule `COc1cc(C(=O)/C(F)=C/c2cc3c(cc2Br)OCO3)cc(OC)c1OC` ?
Result: > 5 µM

Problem: Field entry: `COC(=O)c1ccc2c(/C=C(\F)C(=O)c3cc(OC)c(OC)c(OC)c3)c[nH]c2c1`
Result: > 5 µM

Problem: What do you get for `COc1cc(C(=O)/C(F)=C/c2ccc3oc4ccccc4c3c2)cc(OC)c1OC` ?
Result: > 5 µM

Problem: Similarly, `COc1cc(C(=O)/C(F)=C/c2cccc3c2OCO3)cc(OC)c1OC` ?
Result: > 5 µM

Problem: Also need `COc1cc(C(=O)/C(F)=C/c2c[nH]c3cc(Br)ccc23)cc(OC)c1OC` , thanks.
Result: 0.202 µM

====

# Tested on: A549 (human non-small cell lung cancer)
# METHOD_SUMMARY: Antiproliferative activity (SRB assay)
# Type: cell-based
# SETUP_CONDITIONS: mean ± SD, three separated experiments, 72 h
MEASURED_ATTRIBUTE: pIC50
Conceptually, pIC50 converts a concentration in mol/L into minus its log10.

The following molecules have reported results that may help.
MOLECULE | SYSTEM_TESTED | pIC50
COc1cc(C(=O)/C(F)=C/c2ccc3c(c2)CCO3)cc(OC)c1OC | A549 (human non-small cell lung cancer) | 6.44
COc1cc(C(=O)/C(F)=C/c2c(-c3ccccc3)[nH]c3ccccc23)cc(OC)c1OC | A549 (human non-small cell lung cancer) | 5.44
COc1cc(C(=O)/C(F)=C/c2csc3ccccc23)cc(OC)c1OC | A549 (human non-small cell lung cancer) | 6.30
COc1ccc(/C=C\c2cc(OC)c(OC)c(OC)c2)cc1O [CA-4, Combretastatin A4, reference compound] | A549 (human non-small cell lung cancer) | 8.30

Okay, now this molecule:
Problem: Requested field: pIC50. Item: `COc1cc(C(=O)/C(F)=C/c2coc3ccccc23)cc(OC)c1OC`
Result: 5.99
